Tested on: RARb:RXRa (NR concentration 270 nM, RXRa partner concentration 90 nM)
Test: PBM binding z-score (relative to random genomic background probes); higher = stronger binding; sequences stand for … in GC…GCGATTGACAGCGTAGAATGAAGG
Criterion: PBM binding z-score meeting or surpassing 2. Met: Yes. Not met: No.

Recorded results for 3 sequences are shown here.
Record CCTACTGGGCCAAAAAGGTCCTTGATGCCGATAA ; criterion: PBM binding z-score no lower than 2. Met? No

Reported PBM binding z-score at or above 2? GTAGACAGGTGAAACGCAGGTAACTCAGGGTGGC No

Decide: PBM binding z-score of GTTCCAAGGTGAATAGGTCGTTGATGAGTAGGCG >= 2? Yes

Continuing:
Textbook exercise: given the entry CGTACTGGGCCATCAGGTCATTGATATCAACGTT , state whether its PBM binding z-score is greater than or equal to 2. No

Check this sequence for PBM binding z-score at or above 2: CCTTACGGGTCACTGACAGGTTATAACATTTGGA Yes

Could you tell me if the measured PBM binding z-score of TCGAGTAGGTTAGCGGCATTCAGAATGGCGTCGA reaches 2 or more? No

Would you say TCTAGTTGGTCAAAGGTCACACACTCGAAATGCG shows PBM binding z-score at minimum 2? Yes

Textbook exercise: given the entry CGAACTAGGTCATTGACAGGGCAGTGAATAGTAA , state whether its PBM binding z-score is greater than or equal to 2. Yes

Evaluate TAGCCTCGGTCATGCGGGCCAGTATAGTGTCGGC : PBM binding z-score at minimum 2? Yes

Answer whether PBM binding z-score of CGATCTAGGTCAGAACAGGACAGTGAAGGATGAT is greater than or equal to 2. Yes

Would you say GGAACGAGGGCATTCGAGTTGATAGGATGGCGAT shows PBM binding z-score at minimum 2? No

# check: PBM binding z-score of TCAGACAGGAGAAGGTAACTCAGGTACGCAGTCG is greater than or equal to 2 No

Hello, I need to know if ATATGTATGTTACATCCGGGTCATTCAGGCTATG has measured PBM binding z-score not below 2. Thanks! No

Hi team, for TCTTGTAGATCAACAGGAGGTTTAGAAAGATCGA , is the recorded PBM binding z-score at or above 2? No

Item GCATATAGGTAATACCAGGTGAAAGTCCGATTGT with PBM binding z-score of 2 or above? No

Is it the case that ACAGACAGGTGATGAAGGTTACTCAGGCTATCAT has PBM binding z-score reaching or exceeding 2? No

Item CGTGAAAGTTCAAGGTAACGTAACAGAAAGCAGC with PBM binding z-score of 2 or above? Yes

Say whether ATCTCTAGGCAACCAAGTTCAGTGAATGCCGAAC shows PBM binding z-score of 2 or more. No

// inclusive: PBM binding z-score at least 2? input: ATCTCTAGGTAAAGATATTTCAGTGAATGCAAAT No

Is it the case that TTACCAAGGTGAGATGAGGTCGTTGATCCAACTC has PBM binding z-score reaching or exceeding 2? No

Is the recorded value of PBM binding z-score equal to or greater than 2 for this sequence? ATCTCTAGGAAAAAGTTCAGTGAATCCCGAGGAT No

Does CCTACTGGGCCTTCAGGTCATTGATATCAACGTT have a reported PBM binding z-score of at least 2? No

Say whether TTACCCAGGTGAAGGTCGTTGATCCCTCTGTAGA shows PBM binding z-score of 2 or more. No

Tell me whether PBM binding z-score is at least 2 here: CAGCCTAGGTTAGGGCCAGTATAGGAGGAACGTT No

Does the reported PBM binding z-score for TCTTGTAGATCCAAGGTTAAGAAAGCCGAAGCCT fall at or above the 2 mark? No
